- test.system: T1, recombinant extracellular domain (ECD) of human TF, amino acid 1-219 of the mature chain, C-terminal His6-tag (human, UniProt P13726 33-251)
- T1 construct: expressed in a mammalian system; used for ELISA and Biacore; biotinylated by NHS-ester for the Fab ELISA; also called His6-TF-ECD1-219; HumanTF1-219
- protocol.notes: Biacore
So I've got a bunch of binders here, and I need their kon values.
Answers are plain numbers, in M⁻¹ s⁻¹.

binder: M1583 (antibody, V domains shown, complete MAb; FR4 is its own entry; also called H177/L3) VH: EVQLVQSGAEVKKPGESLRISCKGSGYTFGPYWIEWVRQMPGKGLEWMGDIIPGSGWTNYSPSFQGHVTISADKSISTAYLQWSSLKASDTAMYYCARSGYYGNSGFAYWGQGTLVTVSS VL: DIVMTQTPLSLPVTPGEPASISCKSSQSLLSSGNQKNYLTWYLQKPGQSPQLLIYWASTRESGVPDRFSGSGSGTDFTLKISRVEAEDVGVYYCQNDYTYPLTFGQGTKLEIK
kon [M⁻¹ s⁻¹]: 239000

Next:
The recorded kon for entry M19 (antibody, V domains shown, complete MAb; FR4 is its own entry; also called H16/L5) VH: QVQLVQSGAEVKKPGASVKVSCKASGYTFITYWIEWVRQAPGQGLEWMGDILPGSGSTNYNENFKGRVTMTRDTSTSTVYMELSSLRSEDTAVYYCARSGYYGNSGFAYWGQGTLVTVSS VL: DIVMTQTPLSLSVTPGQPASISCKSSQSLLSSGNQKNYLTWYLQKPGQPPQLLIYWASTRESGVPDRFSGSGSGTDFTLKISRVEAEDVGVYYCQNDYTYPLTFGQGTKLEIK equals 98800
